Entry source: PubChem BioAssay (NCI)

Test system: OVCAR-4 ovarian
assay_procedure: NCI tumour cell line growth inhibition, 48 h; in the data active = GI50 below about 0.43 µM; inactive = the rest
*1 amine or outer side, *2 acyl side, *3 side chain or, on linkers, in order; H or OH if unused. Where a SMILES comes first, the peptide text is derived from it. Bridges are numbered along the chain shown (N, C = ends). [ ]: non-standard residue; d: D form. The star is where a group is joined. Phe(3-Me) = Cc1cccc(C[C@H](N)C(=O)O)c1; NH(4-Cl-2-F-phenyl) = Fc1cc(Cl)ccc1N*; Pro(4R-Me) = C[C@H]1CN[C@H](C(=O)O)C1; Hyp = O=C(O)[C@@H]1C[C@@H](O)CN1; aThr = C[C@H](O)[C@H](N)C(=O)O; Pip = O=C(O)[C@@H]1CCCCN1; CO = O=C([*:1])[*:2]
Outcomes: active, inactive

>>> category("C#CC[C@H](c1nc2cc(Cl)ccc2c(=O)n1Nc1ccccc1)N(CCCN)C(=O)c1cccc(Cl)c1F")
"inactive"
>>> category("O=C(c1cc(-c2cc3c(cc2C(=O)N2Cc4ccccc4C[C@H]2CN2CCOCC2)OCO3)n2c1CCCC2)N(c1ccccc1)c1ccc(O)cc1")
"inactive"
>>> category("Cl.Fc1c[c-]c(-c2ccccn2)c(F)c1.[Pt].c1ccc([PH+](CC[PH+](c2ccccc2)c2ccccc2)c2ccccc2)cc1")
"active"
>>> category("COc1cc(-c2cc(-c3nc4ccccc4[nH]3)[nH]n2)cc(OC)c1OC")
"inactive"
>>> category("Cc1cc(-c2nc3ccc(O)cc3s2)ccc1N")
"inactive"
>>> category("O=C1C(Cl)=C(N2CCOCC2)C(=O)c2ccccc21")
"inactive"
>>> category("CCOC(=O)C(Cc1c[nH]c2cc([N+](=O)[O-])ccc12)(NC(C)=O)C(=O)OCC")
"inactive"
>>> category("COC[C@H]1OC(=O)c2coc3c2[C@@]1(C)C1=C(C3=O)[C@@H]2CCC(=O)[C@@]2(C)C[C@H]1OC(C)=O")
"inactive"
>>> category("CCCCC(=O)[O-].N.N.N.N.N.[Co+3].[O-][Cl+3]([O-])([O-])[O-]")
"inactive"
>>> category("COc1ccc(C2=C(c3cn(C)c4ccccc34)C(=O)NC2=O)cc1OC")
"inactive"
>>> category("Fc1ccc(-c2nnc3sc(-c4cccc(Cl)c4)nn23)cc1Cl")
"inactive"
>>> category("C=C(CN1CCN(c2ccccc2F)CC1)c1ccc(C(=O)Nc2ccccc2N)cc1")
"inactive"
>>> category("C[C@@H]1CCN(C(=O)CC#N)C[C@@H]1N(C)c1ncnc2[nH]ccc12")
"inactive"
>>> category("CCC(C)/C=C(C)/C=C/C(=O)c1c(O)c(-c2ccc(O)cc2)c[nH]c1=O (centres undefined)")
"inactive"
>>> category("COc1cccc(/C=C/C(=O)c2cc3c(N)c(C(=O)Nc4cccc(Cl)c4C)sc3nc2C)c1")
"inactive"
>>> category("Cc1cccc(C[C@H](NC(=O)Nc2ccc(Cl)cc2F)C(=O)N[C@@H]2C(=O)N3C[C@H](O)C[C@H]3C(=O)N3CCCC[C@H]3C(=O)N[C@@H](C)C(=O)N3C[C@H](C)C[C@H]3C(=O)O[C@H]2C)c1 ({NH(4-Cl-2-F-phenyl)-CO}-[Phe(3-Me)][aThr][Hyp][Pip]A[Pro(4R-Me)]; ester 2-C)")
"active"
>>> category("O=C(CNC(=O)c1cccc2ccccc12)Nc1ccccc1Oc1ccccc1")
"inactive"
>>> category("CC[O-].CC[O-].O=Nc1ccc2cc([O-])ccc2c1.O=Nc1ccc2cc([O-])ccc2c1.[Ti+4]")
"inactive"
>>> category("CCc1nc2ccc(Cc3ccc(C(=O)NO)cc3)cc2c(=O)n1CCc1ccccc1")
"inactive"
